# Target or test system: Aβ (1-40) peptide (Homo sapiens)
# Construct: Aβ (1-40) peptide in 20% HFIP
# Sequence (P05067 672-711 limits assumed): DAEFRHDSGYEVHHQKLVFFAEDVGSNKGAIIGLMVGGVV
# Assay procedure: BAPA (Beta-Amyloid Peptide Aggregation, pH 6.0), filtration endpoint
# Conditions: Aβ(1-40) 33 μM, pH 6.0, 2 to 4 hours, room temperature
Assay endpoint: IC50 (µM)
Quick reminder: number only, in µM, skip the unit.

                                   compound  assay_endpoint  endpoint_value
0  O=C(O)c1cc([N+](=O)[O-])ccc1Nc1ccc2c(c1)CC(NCc1ccc(Cl)c(Cl)c1)C2 (stereo not shown)            IC50              28
1  O=C(O)c1cc([N+](=O)[O-])ccc1NC1Cc2ccc(Nc3ccc(Cl)c(Cl)c3)cc2C1 (stereo not shown)            IC50               5

Here's the next entry for you.
## Task API: value(readout= IC50, system= Aβ (1-40) peptide (Homo sapiens), query= CCCCCN(CCCCC)C1Cc2ccc(Nc3ccc(C)cc3C(=O)O)cc2C1 (stereo not shown) )
## Result 118

* * *

# Target or test system: Aβ (1-40) peptide (Homo sapiens)
# Construct: Aβ (1-40) peptide in 20% HFIP
# Assay procedure: BAPA (Beta-Amyloid Peptide Aggregation, pH 6.0), filtration endpoint
# Conditions: Aβ(1-40) 33 μM, pH 6.0, 2 to 4 hours, room temperature
Assay endpoint: pIC50
In plain terms, pIC50 is the concentration in mol/L turned into minus its base-10 logarithm.

Known pIC50 results, listed for orientation:
>>> df
                                   compound             target_or_test_system  endpoint_value
0  O=C(O)c1cc([N+](=O)[O-])ccc1Nc1ccc2c(c1)CC(N(Cc1ccc(F)cc1)Cc1ccc(F)cc1)C2 (centres unmarked)  Aβ (1-40) peptide (Homo sapiens)            5.15
1  CCCCCN(CCCCC)C1Cc2ccc(Nc3ccc([N+](=O)[O-])cc3C(=O)O)cc2C1 (centres unmarked)  Aβ (1-40) peptide (Homo sapiens)            4.48
2  CCCCCN(CCCCC)C1Cc2ccc(Nc3ccc(C(=O)O)cc3[N+](=O)[O-])cc2C1 (centres unmarked)  Aβ (1-40) peptide (Homo sapiens)            3.93

## Task I have this compound here, COc1ccc(Nc2ccc3c(c2)CC(NCc2ccc(Cl)c(Cl)c2)C3)c(C(=O)O)c1 (centres unmarked) , and I need its recorded pIC50.
## Result 3.78

## Task Please give the result for CCCCCNC1Cc2ccc(Nc3ccc([N+](=O)[O-])cc3C(=O)O)cc2C1 (centres unmarked) too.
## Result 5.30

* * *

# Target or test system: Soluble Aβ(1-40) (Homo sapiens)
# Construct: Soluble Aβ(1-40)—2.2 mg/mL in deionized H2O
# Assay procedure: BASST (Beta-Amyloid Self-Seeding, Thioflavin T): inhibitors of self-seeded amyloid fibril growth
# Conditions: 30 μM soluble Aβ(1-40), 37° C., 3 to 5 hours, thioflavin T fluorescence
Measured IC50 values are reported for all entries that follow.

>>> df
                                   compound  endpoint_value
0  CCCCCN(CCCCC)C1Cc2ccc(Nc3ccc([N+](=O)[O-])cc3C(=O)O)cc2C1 (centres unmarked)           40 µM

Here's the next entry for you.
## Task API: value(readout= IC50, system= Soluble Aβ(1-40) (Homo sapiens), query= O=C(O)c1cc([N+](=O)[O-])ccc1Nc1ccc2c(c1)CC(NCc1ccc(F)cc1)C2 (centres unmarked) )
## Result 30 µM
